Listed next: entries and their corresponding period change.
test: compounds altering circadian rhythm period length – cell-based, LOPAC library, luminescence reporter (AID 2774); settings: circadian reporter cells, at 7 µM, actives lie on both sides;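 further: values are relative to mean of DMSO wells on each plate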
The source made the active and inactive calls. How the calls were made is not given here.

Please fill in: period change reported for NC(=O)c1ncn([C@@H]2O[C@H](CO)[C@@H](O)[C@H]2O)n1 = 0.065 h (inactive)

period change measured on CC(=O)N[C@@H](CS)C(=O)O = 0.1 h (inactive)

* * *

Parameter inhibition of aggregation: see the listing below.
assay: polyglutamine aggregate formation blockers (AID 1604); settings: polyglutamine-induced protein aggregation inhibition assay; stronger effect = higher value; tested at 2.5 µM
Reply with just the number (in %).

Solved cases (5 shown):
* CCN(CCCCOC(=O)c1ccc(OC)c(OC)c1)C(C)Cc1ccc(OC)cc1 (centres undefined) | 65.1
* CS(=O)(=O)c1ccc([C@@H](O)[C@@H](CO)NC(=O)C(Cl)Cl)cc1 | 100
* Cn1c(=O)c2c(ncn2CCO)n(C)c1=O | 56.7
* Cc1ccccc1OCC(O)CO (centres undefined) | 70.4
* CC(=O)OCC1=C(C(=O)O)N2C(=O)[C@@H](NC(=O)Cc3cccs3)[C@H]2SC1 | -17.5

According to the records, this molecule NNc1nncc2ccccc12 displays inhibition of aggregation of -30.3

For Cc1cc(C(C)(C)C)cc(C)c1CC1=NCCN1 the molecule record lists inhibition of aggregation as 63.4

inhibition of aggregation recorded for this molecule, O=NN(CCCl)C(=O)NCCCl , is 72.2

CCCCC1C(=O)N(c2ccccc2)N(c2ccc(O)cc2)C1=O (centres undefined) yielded inhibition of aggregation of 61

Value of inhibition of aggregation reported for the molecule CC(C)COCC(CN(Cc1ccccc1)c1ccccc1)N1CCCC1 (centres undefined) is 23.6

The recorded inhibition of aggregation for CO[C@]12C[C@@H](COC(=O)c3cncc(Br)c3)CN(C)[C@@H]1Cc1cn(C)c3cccc2c13 is 65.4

Value of inhibition of aggregation reported for the molecule CCCCOc1ccc(CC(=O)NO)cc1 is 43.1

Data point: C[C@](N)(Cc1ccc(O)c(O)c1)C(=O)O ; inhibition of aggregation = 31.7

Sure, the documented inhibition of aggregation for O=C(O)c1ccccc1Nc1cccc(C(F)(F)F)c1 is 73.1

// inhibition of aggregation value for Nc1ccc(S(N)(=O)=O)cc1 : 81.5

Form field inhibition of aggregation, entry CCCCCCc1ccc(O)cc1O : 56.7

For O=C(OCC(O)CO)c1ccccc1Nc1ccnc2cc(Cl)ccc12 (centres undefined) the molecule record lists inhibition of aggregation as 23.8

Sure, the documented inhibition of aggregation for COC(=O)Nc1nc2ccc(Sc3ccccc3)cc2[nH]1 is 6.35

Reported inhibition of aggregation for Nc1ccc(C(=O)O)c(O)c1 was 88.8

Reported inhibition of aggregation of Nc1c(Br)cc(Br)cc1CNC1CCC(O)CC1 (centres undefined) : 54.5

According to the records, this molecule Cc1ccc(C(C)C)cc2c(C)ccc1-2 displays inhibition of aggregation of 30.6

Entry C1CCC(C(CC2CCCCN2)C2CCCCC2)CC1 (centres undefined) ; inhibition of aggregation = 83.1

* * *

assay: modulation of C. elegans fzo-1 (AID 1259413);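 further: fzo-1 mutant C. elegans worms in liquid wells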; settings: C. elegans fzo-1 modulator screen, mean read-out
Active and inactive are the calls of the source. How the calls were made is not given here.
Lab note: assign the record to one of 1 = active, -1 = inactive

Example entries and their recorded answers appear below.
• CC(c1cc2ccccc2s1)N(O)C(N)=O (configuration not stated) = -1
• COc1ccccc1OCC(O)CN1CCN(CC(=O)Nc2c(C)cccc2C)CC1 (configuration not stated) = -1
• CC(=O)NS(=O)(=O)c1ccc(N)cc1 = -1

Ask: Please indicate how the test categorized CO[C@H]1C=CO[C@@]2(C)Oc3c(C)c(O)c4c(O)c(c(/C=N/N5CCN(C)CC5)c(O)c4c3C2=O)NC(=O)/C(C)=C\C=C[C@H](C)[C@H](O)[C@@H](C)[C@@H](O)[C@@H](C)[C@H](OC(C)=O)[C@@H]1C .
Result: -1

Ask: # lookup: test call for CNNCc1ccc(C(=O)NC(C)C)cc1
Result: -1

Ask: Query: recorded result category for O=C(NCCN1CCOCC1)c1ccc(Cl)cc1 in this test
Result: -1

Ask: # fetch the recorded call for CN1CCC(=C2c3ccccc3CC(=O)c3sccc32)CC1 here
Result: -1

Ask: Per the records of this test, what outcome belongs to O=C1CC2(CCCC2)CC(=O)N1CCCCN1CCN(c2ncccn2)CC1 ?
Result: -1

Ask: Recorded call for CN(C)CC/C=C1/c2ccccc2COc2ccc(CC(=O)O)cc21 ?
Result: -1

Ask: Please let me know the test result on file for COc1ccc2nc(S(=O)Cc3ncc(C)c(OC)c3C)[nH]c2c1 (configuration not stated) .
Result: -1

Ask: Query: recorded result category for CCOC(=O)C1=C(C)NC(C)=C(C(=O)OCC)C1c1ccccc1/C=C/C(=O)OC(C)(C)C in this test
Result: -1

Ask: // return assay outcome for CN(CCCN1c2ccccc2CCc2ccccc21)CC(=O)c1ccc(Cl)cc1
Result: -1

Ask: Record request — test call for Cc1ccsc1C(=CCCN1CCC[C@@H](C(=O)O)C1)c1sccc1C
Result: -1

Ask: Status in this test for Cn1nnc2c(C(N)=O)ncn2c1=O ?
Result: -1

Cited source for all entries: PubChem BioAssay
